Form field: drug sensitivity score (one value per entry).
# Test system: MDA-MB-453
# assay-details: drug sensitivity score (DSS), in combination with BLU9931 (DSS (weighted AUC score)); higher = more sensitive (stronger viability decrease); extreme values may be limits of the assay
# condition: BLU9931 100 nM; 72 h
// no unit, no text: just the number

Before answering, review these 4 worked examples.
>>> observed_measurement("N[C@@H]1CCCN(c2c(/C=C3\\SC(=O)NC3=O)cccc2-c2ccccc2)C1")
0.1
>>> observed_measurement("N#Cc1ccnc(N2C(=O)CC[C@H]2C(=O)N(c2cncc(F)c2)[C@H](C(=O)NC2CC(F)(F)C2)c2ccccc2Cl)c1")
0
>>> observed_measurement("Cc1nc(Nc2ncc(C(=O)Nc3c(C)cccc3Cl)s2)cc(N2CCN(CCO)CC2)n1")
0
>>> observed_measurement("Cc1cc(Nc2ncc(Cl)c(Nc3ccccc3S(=O)(=O)C(C)C)n2)c(OC(C)C)cc1C1CCNCC1")
1.9

Returns the measured drug sensitivity score for the input compound. Input: C[C@@H](Nc1cc(F)cc(F)c1)c1cc(C(=O)N(C)C)cc2c(=O)cc(N3CCOCC3)oc12
2.3

Returns the measured drug sensitivity score for the input compound. Input: C=C(c1ccc(C(=O)O)cc1)c1cc2c(cc1C)C(C)(C)CCC2(C)C
0

Returns the measured drug sensitivity score for the input compound. Input: COCCOc1cnc2ccn([C@H](C)c3nnc4c(F)cc(-c5cnn(C)c5)cn34)c(=O)c2c1
0

###

# System: MDA-MB-453
# assay-details: drug sensitivity score (DSS), in combination with BLU9931 (DSS (weighted AUC score)); higher = more sensitive (stronger viability decrease); extreme values may be limits of the assay
# condition: BLU9931 100 nM; 72 h
Form field: drug sensitivity score (one value per entry).

Returns the measured drug sensitivity score for the input compound. Input: Clc1ccc(Nc2nnc(Cc3ccncc3)c3ccccc23)cc1 [Vatalanib]
0.3

Returns the measured drug sensitivity score for the input compound. Input: CCOC(=O)C1=CCCC[C@H]1S(=O)(=O)Nc1ccc(F)cc1Cl [Resatorvid]
0

Returns the measured drug sensitivity score for the input compound. Input: CCCCCCCCc1ccc(CCC(N)(CO)CO)cc1 [Fingolimod]
7.7

Returns the measured drug sensitivity score for the input compound. Input: COC(=O)c1ccc2c(c1)[nH]c1ncnc(NCCCN3CCCCC3)c12 [UM729]
1.3

Returns the measured drug sensitivity score for the input compound. Input: COc1cc(C(=O)O)ccc1NC(=O)[C@@H]1N[C@@H](CC(C)(C)C)[C@](C#N)(c2ccc(Cl)cc2F)[C@H]1c1cccc(Cl)c1F [Idasanutlin]
0

Returns the measured drug sensitivity score for the input compound. Input: Cc1nc2cccc(N)c2c(=O)n1C1CCC(=O)NC1=O (configuration not stated) [CC122]
0

Returns the measured drug sensitivity score for the input compound. Input: O=C(c1cc(Cc2n[nH]c(=O)c3ccccc23)ccc1F)N1CCN(C(=O)C2CC2)CC1 [Olaparib]
0.5

Returns the measured drug sensitivity score for the input compound. Input: Nc1nc(Nc2ccc3c(c2)CC[C@@H](N2CCCC2)CC3)nn1-c1cc2c(nn1)-c1ccccc1CCC2 [BGB324]
0.2

###

# Test system: MDA-MB-453
# assay-details: drug sensitivity score (DSS), single agent (DSS (weighted AUC score)); higher = more sensitive (stronger viability decrease); extreme values may be limits of the assay
# condition: BLU9931 0 nM; 72 h
Form field: drug sensitivity score (one value per entry).

Before answering, review these 6 worked examples.
>>> observed_measurement("CN1CC[C@@H](NC(=O)Nc2ccc(C#N)cc2)C[C@@H]1c1nc2ccccc2[nH]1")
0
>>> observed_measurement("CC[C@H](C)C(=O)O[C@H]1C[C@@H](C)C=C2C=C[C@H](C)[C@H](CC[C@@H]3C[C@@H](O)CC(=O)O3)[C@H]21")
0
>>> observed_measurement("CN(C)C(=O)c1cc2cnc(Nc3ccc(N4CCNCC4)cn3)nc2n1C1CCCC1")
1.4
>>> observed_measurement("CN1CCC(CNc2ccc3ncc(-c4cccc(OC(F)(F)F)c4)n3n2)CC1")
6.6
>>> observed_measurement("Cc1c(-c2ccc(N3CCc4cccc(C(=O)Nc5nc6ccccc6s5)c4C3)nc2C(=O)O)cnn1CC12CC3CC(CC(C3)C1)C2")
1.4
>>> observed_measurement("CC[C@@]1(O)C(=O)OCc2c1cc1n(c2=O)Cc2cc3c(CN(C)C)c(O)ccc3nc2-1")
14.7

Next, consider the following compound.
Returns the measured drug sensitivity score for the input compound. Input: O=C(O)c1ccc(-c2c[nH]c3ncc(-c4ccccc4)cc23)cc1C1CCCC1
1.4
